- measured-target: Calcium-activated potassium channel subunit alpha-1 (Homo sapiens, UniProt Q12791)
- Sequence (Q12791 whole entry): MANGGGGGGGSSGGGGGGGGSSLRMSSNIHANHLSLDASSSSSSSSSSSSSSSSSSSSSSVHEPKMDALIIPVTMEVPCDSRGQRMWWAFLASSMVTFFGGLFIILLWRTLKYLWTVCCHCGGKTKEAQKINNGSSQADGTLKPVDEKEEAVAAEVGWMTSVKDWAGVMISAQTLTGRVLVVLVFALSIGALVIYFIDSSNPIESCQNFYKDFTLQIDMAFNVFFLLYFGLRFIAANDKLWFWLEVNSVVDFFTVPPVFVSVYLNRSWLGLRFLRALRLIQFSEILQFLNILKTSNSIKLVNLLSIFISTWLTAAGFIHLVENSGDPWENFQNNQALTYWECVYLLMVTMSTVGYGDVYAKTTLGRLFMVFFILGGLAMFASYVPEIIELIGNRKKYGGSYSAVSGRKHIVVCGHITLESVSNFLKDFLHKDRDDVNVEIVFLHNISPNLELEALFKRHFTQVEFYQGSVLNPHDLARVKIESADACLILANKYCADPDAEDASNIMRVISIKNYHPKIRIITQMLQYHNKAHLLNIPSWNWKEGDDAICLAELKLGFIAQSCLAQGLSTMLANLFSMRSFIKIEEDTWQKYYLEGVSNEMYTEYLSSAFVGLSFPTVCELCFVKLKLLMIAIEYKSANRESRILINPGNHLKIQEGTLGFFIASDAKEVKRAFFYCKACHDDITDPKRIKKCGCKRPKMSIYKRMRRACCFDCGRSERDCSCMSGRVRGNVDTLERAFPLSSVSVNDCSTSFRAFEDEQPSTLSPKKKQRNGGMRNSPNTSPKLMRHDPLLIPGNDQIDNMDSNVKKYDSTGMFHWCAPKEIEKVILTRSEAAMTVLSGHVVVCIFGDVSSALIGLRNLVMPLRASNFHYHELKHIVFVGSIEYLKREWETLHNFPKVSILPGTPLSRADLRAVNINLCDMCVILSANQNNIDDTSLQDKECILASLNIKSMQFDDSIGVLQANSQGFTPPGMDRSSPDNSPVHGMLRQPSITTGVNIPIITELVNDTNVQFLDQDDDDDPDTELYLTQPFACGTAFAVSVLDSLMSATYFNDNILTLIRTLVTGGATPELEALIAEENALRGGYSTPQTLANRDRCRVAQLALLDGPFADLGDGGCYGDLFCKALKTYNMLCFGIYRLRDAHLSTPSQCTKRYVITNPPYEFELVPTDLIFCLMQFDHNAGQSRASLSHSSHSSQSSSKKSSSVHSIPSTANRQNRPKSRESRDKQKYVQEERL
- assay-info: Positive modulation of Kca 1.1 (unknown origin)
pEC50: −log10 of the molar value.
reported-property: pEC50

chemical-structure: COc1ccc(Cl)cc1[C@]1(F)C(=O)Nc2cc(C(F)(F)F)ccc21
measured-target: Calcium-activated potassium channel subunit alpha-1 (Homo sapiens, UniProt Q12791)
reported-property: pEC50
recorded-value: 6.45

----------
- measured-target: GABA-A receptor; alpha-1/beta-2/gamma-2 (Homo sapiens, UniProt P14867+P18507+P47870)
- Sequence (P14867 whole entry): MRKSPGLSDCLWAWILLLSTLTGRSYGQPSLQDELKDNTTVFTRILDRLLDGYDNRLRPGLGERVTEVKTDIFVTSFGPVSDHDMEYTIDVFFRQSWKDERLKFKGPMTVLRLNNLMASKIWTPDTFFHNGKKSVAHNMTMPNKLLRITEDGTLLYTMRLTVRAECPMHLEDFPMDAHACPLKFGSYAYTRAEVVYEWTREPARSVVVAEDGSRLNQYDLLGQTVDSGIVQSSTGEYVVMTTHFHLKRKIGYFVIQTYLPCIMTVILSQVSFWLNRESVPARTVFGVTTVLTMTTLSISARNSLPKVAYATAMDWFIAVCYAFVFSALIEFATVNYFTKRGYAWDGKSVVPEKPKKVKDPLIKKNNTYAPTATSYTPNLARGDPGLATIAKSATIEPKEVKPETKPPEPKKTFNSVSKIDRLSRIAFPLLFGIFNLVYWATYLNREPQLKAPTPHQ
- Sequence (P47870 whole entry): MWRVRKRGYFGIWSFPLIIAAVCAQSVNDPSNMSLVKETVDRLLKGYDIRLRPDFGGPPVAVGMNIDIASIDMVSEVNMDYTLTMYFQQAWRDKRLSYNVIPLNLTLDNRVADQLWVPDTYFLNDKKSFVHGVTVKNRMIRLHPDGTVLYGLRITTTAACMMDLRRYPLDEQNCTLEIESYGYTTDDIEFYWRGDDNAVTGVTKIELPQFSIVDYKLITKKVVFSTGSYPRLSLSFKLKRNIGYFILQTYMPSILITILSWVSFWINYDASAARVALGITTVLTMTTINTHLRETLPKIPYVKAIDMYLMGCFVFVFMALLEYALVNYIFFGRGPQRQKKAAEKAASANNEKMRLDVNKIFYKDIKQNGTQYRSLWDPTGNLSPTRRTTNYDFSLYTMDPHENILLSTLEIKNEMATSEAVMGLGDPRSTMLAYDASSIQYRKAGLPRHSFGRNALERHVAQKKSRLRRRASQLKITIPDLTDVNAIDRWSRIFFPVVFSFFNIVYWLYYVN
- Sequence (P18507 whole entry): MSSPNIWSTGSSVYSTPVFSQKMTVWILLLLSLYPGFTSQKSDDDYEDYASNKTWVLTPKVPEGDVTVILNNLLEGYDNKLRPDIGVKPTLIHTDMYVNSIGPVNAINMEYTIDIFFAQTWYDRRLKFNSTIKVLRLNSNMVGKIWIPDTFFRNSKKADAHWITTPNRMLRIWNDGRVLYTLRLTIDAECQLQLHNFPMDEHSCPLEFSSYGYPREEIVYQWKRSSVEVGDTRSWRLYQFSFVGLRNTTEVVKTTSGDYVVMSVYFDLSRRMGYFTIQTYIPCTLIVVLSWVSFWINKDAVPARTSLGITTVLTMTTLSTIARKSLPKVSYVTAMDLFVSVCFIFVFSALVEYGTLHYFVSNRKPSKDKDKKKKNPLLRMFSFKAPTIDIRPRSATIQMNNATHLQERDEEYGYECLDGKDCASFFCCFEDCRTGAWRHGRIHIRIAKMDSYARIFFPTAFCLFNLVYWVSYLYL
- assay-info: Modulation of human GABA-A alpha1beta2gamma2 expressed in xenopus oocytes assessed as potentiation of GABA-evoked chloride currents
- Type: cell-based, Oocyte
pEC50: −log10 of the molar value.

chemical-structure: CCN(C(C)=O)c1cccc(-c2ccnc3c(C#N)cnn23)c1
measured-target: GABA-A receptor; alpha-1/beta-2/gamma-2 (Homo sapiens, UniProt P14867+P18507+P47870)
pEC50: 6.54

----------
- measured-target: Sodium channel protein type 3 subunit alpha (Homo sapiens, UniProt Q9NY46)
- assay-info: Inhibition of voltage-gated Na channel 1.3 (unknown origin)
pIC50: −log10 of the molar value.
reported-property: pIC50

compound: NC(=O)C(c1ccccc1)(c1ccc(F)cc1)c1ccc(F)cc1 [SENICAPOC]
recorded-value: < 6.00

----------
- measured-target: Potassium channel subfamily K member 2 (Homo sapiens)
- assay-info: Inhibition of TREK-1 (unknown origin)
pIC50: −log10 of the molar value.
reported-property: pIC50

molecule: CCOC(=O)C1=C(COCCN)NC(C)=C(C(=O)OC)C1c1ccccc1Cl (stereo unspecified)
recorded-value: 6.40

----------
// reported EC50 per item
- assay-info: Agonist activity at AMPA receptor in rat hippocampal neurons by patch clamp technique
- Type: tissue-based
- run-conditions: Hippocampus
reported-property: EC50 (nM)

chemical-structure: N[C@@H](Cn1cc(Cl)c(=O)[nH]c1=O)C(=O)O
reported-property: EC50
unit-annotation: nM
recorded-value: 2000
--
chemical-structure: N[C@@H](Cn1cc(F)c(=O)[nH]c1=O)C(=O)O
reported-property: EC50
unit-annotation: nM
recorded-value: 1500

----------
- measured-target: Voltage-gated inwardly rectifying potassium channel KCNH2 (Homo sapiens, UniProt Q12809)
- Sequence (Q12809 whole entry): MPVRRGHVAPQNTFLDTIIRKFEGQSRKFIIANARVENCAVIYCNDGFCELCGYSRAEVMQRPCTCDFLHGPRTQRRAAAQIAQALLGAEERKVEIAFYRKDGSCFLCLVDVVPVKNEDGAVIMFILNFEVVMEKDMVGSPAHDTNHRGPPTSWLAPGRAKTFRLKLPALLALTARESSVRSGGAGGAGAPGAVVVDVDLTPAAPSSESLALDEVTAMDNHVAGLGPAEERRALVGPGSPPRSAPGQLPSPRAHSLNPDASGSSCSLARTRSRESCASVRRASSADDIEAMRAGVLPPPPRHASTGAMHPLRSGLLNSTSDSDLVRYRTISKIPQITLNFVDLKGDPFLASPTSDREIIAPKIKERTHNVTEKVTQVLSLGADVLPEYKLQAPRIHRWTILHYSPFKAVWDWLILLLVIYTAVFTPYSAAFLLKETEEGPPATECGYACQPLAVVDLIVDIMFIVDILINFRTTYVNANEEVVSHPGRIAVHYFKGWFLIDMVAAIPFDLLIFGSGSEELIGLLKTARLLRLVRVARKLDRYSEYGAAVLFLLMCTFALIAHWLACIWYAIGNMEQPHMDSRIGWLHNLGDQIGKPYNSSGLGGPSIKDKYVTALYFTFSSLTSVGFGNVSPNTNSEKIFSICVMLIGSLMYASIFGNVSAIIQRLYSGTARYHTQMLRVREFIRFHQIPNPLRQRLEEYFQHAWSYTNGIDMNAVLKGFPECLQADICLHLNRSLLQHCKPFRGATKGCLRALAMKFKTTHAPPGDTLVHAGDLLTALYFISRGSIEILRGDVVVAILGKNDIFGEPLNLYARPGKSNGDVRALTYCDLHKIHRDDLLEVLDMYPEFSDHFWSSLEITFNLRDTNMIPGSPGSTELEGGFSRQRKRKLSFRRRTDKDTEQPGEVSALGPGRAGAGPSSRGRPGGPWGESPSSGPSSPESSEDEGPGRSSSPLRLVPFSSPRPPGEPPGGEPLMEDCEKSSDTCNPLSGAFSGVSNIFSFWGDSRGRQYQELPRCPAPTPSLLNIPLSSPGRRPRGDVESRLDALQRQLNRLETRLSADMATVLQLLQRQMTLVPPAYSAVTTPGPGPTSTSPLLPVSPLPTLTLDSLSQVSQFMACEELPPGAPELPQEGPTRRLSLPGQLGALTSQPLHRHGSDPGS
pIC50: −log10 of the molar value.
reported-property: pIC50

compound: NC(=O)C(c1ccccc1)(c1ccc(F)cc1)c1ccc(F)cc1 [SENICAPOC]
recorded-value: < 6.00

----------
- measured-target: Potassium channel subfamily K member 2 (Homo sapiens, UniProt O95069)
- Sequence (O95069 whole entry): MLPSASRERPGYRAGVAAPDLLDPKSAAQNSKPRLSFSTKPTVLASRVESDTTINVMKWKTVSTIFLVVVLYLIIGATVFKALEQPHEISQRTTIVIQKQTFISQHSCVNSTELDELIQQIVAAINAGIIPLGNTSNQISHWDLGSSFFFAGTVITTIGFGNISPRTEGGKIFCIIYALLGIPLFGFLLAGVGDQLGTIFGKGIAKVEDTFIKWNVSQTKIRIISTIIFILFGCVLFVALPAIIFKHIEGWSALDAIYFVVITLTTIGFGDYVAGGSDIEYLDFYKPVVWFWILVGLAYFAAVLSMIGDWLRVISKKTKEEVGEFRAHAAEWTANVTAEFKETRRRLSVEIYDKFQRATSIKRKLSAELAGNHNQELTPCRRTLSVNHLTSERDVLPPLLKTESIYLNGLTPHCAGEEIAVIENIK
- assay-info: Inhibition of human TREK-1 expressed in HEK293 cells by patch-clamp technique
- Format: cell-based

chemical-structure: CCN(CC)CC(=O)Nc1c(C)cccc1C
IC50, µM: 180

----------
- measured-target: Sodium channel protein type 2 subunit alpha (Homo sapiens)
- assay-info: Inhibition of human voltage-gated Na channel 1.2 by cell based patch clamp technique

chemical-structure: COc1cnc(-c2cccc3c2C[C@H](NC(=O)c2ccc(COCC(F)(F)F)nc2)CO3)cn1
measured-target: Sodium channel protein type 2 subunit alpha (Homo sapiens)
IC50: > 33 µM

----------
// reported pKi per item
- measured-target: Gamma-aminobutyric acid receptor subunit alpha-3 (Homo sapiens)
- Sequence (P34903 whole entry): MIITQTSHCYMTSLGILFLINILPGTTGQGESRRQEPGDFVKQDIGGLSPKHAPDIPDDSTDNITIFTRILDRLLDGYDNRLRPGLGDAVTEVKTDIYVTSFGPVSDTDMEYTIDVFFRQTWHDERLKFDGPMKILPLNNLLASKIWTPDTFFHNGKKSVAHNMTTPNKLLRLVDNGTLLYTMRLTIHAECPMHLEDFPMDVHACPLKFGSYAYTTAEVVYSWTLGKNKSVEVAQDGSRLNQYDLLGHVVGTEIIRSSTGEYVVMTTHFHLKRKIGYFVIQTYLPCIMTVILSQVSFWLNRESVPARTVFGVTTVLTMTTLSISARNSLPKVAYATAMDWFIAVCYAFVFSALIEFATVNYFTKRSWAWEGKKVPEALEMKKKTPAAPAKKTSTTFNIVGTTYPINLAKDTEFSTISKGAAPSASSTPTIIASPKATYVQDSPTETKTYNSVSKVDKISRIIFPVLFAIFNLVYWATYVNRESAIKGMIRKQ
- assay-info: Positive allosteric modulation of GABAA alpha3 (unknown origin)
pKi: −log10 of the molar value.

chemical-structure: Cn1ncnc1COc1nn2c(-c3cc(F)ccc3F)nnc2cc1C(C)(C)C
measured-target: Gamma-aminobutyric acid receptor subunit alpha-3 (Homo sapiens)
pKi: 9.15
//
chemical-structure: CCOC(=O)c1ncn2c1[C@@H]1CCCN1C(=O)c1cc(OC)ccc1-2
measured-target: Gamma-aminobutyric acid receptor subunit alpha-3 (Homo sapiens)
pKi: 7.60
//
chemical-structure: Cc1cc(-c2nncc3c(C(C)(C)C)c(OCc4ncnn4C)nn23)no1
measured-target: Gamma-aminobutyric acid receptor subunit alpha-3 (Homo sapiens)
pKi: 9.10
//
chemical-structure: Cc1csc(-c2cc(-c3ccncc3)c3n(c2=O)CCCc2ccncc2-3)n1
measured-target: Gamma-aminobutyric acid receptor subunit alpha-3 (Homo sapiens)
pKi: 9.30
